Recorded pIC50 by entry
Target: human IGF-1R (NIH-3T3 cells over expressing human IGF-1R) (Homo sapiens)
Sequence (P08069 31-1367): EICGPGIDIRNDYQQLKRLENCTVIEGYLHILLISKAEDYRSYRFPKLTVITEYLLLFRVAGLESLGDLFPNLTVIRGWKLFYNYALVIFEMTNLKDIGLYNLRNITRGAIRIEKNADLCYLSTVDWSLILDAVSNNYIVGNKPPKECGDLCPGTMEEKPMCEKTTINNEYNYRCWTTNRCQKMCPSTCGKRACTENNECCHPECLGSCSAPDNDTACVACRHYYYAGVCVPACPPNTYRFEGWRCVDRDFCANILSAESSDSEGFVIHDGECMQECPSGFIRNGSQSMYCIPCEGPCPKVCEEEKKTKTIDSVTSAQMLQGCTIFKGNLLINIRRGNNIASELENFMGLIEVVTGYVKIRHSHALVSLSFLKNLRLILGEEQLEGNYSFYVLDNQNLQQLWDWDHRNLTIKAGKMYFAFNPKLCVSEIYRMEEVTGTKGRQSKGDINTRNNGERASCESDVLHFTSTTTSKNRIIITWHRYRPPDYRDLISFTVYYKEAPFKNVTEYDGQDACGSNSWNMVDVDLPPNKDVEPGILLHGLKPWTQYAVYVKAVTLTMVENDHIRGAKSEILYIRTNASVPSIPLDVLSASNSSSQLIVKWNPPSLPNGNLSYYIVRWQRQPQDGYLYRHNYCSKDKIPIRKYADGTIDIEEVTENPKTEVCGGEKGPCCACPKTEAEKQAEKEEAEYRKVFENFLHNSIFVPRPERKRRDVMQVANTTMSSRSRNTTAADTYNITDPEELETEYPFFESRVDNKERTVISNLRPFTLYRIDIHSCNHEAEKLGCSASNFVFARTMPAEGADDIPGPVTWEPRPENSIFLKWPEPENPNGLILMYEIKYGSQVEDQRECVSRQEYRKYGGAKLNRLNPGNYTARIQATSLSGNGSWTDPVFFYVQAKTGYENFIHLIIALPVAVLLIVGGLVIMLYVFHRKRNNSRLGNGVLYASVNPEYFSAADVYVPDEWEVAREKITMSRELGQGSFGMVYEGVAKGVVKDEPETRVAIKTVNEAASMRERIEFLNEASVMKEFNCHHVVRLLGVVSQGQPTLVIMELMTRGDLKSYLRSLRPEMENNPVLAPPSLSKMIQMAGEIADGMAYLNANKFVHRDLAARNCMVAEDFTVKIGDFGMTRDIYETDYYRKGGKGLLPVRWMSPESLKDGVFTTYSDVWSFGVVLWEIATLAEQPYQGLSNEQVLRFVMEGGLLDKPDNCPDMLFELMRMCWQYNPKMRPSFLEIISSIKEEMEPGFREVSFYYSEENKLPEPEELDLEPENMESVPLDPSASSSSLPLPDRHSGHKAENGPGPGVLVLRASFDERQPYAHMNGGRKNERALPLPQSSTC
Assay: IGF-1R cellular autophosphorylation (DELFIA)
Settings: IGF-1 stimulated
Description: D. IGF-1R and IR Cellular Autophosphorylation (DELFIA) NIH-3T3 cells over expressing human IGF-1R or IR were plated in 96-well plates (10,000 cells/well) in culture media containing 10% fetal bovine serum and incubated at 37° C. in a 5% CO2 incubator. […] The fluorescence signal for cells treated with compounds was expressed as percent relative to 100% stimulation (IGF-1 or insulin stimulated signal). […]
pIC50: −log10 of the molar value.

Line notation: CCOc1cc(N2CCC(N3CCCCC3)CC2)ccc1Nc1nccc(-c2c(-c3cccc(C(=O)Nc4c(F)cccc4F)c3)nc3ccccn23)n1
pIC50: > 7.00
//
Line notation: COc1cc(N2CCN(S(C)(=O)=O)CC2)ccc1Nc1nccc(-c2c(-c3cccc(C(=O)Nc4c(F)cccc4F)c3)nc3ccccn23)n1
pIC50: > 7.00
//
Line notation: CN(C)CCOc1cccc(Nc2nccc(-c3c(-c4cccc(C(=O)Nc5c(F)cc(F)cc5F)c4)nc4ccccn34)n2)c1
pIC50: 6.30 to 7.00
//
Line notation: COc1cc(N2CCN3CCOC[C@@H]3C2)ccc1Nc1nccc(-c2c(-c3ccc(OC)c(C(=O)Nc4c(F)cccc4F)c3)nc3ccccn23)n1
pIC50: > 7.00
//
Line notation: COc1cc(N2CCC(N3CCC(C(F)(F)F)CC3)CC2)ccc1Nc1nccc(-c2c(-c3cccc(C(=O)Nc4c(F)cccc4F)c3)nc3ccccn23)n1
pIC50: > 7.00
//
Line notation: COc1cc(-c2nnc(CN3CCCC3)o2)ccc1Nc1nccc(-c2c(-c3cccc(C(=O)Nc4c(F)cccc4F)c3)nc3ccccn23)n1
pIC50: 6.30 to 7.00

----------
Test system: various cell lines of different tumor origins
Assay: Inhibition of cell proliferation, InCell Analyzer assay
Type: cell-based
Conditions: Homo sapiens, HCC38, HCC38, Breast
pIC50: −log10 of the molar value.

Molecule: COc1cc(N2CCC(N3CCCCC3)CC2)ccc1Nc1nccc(-c2c(-c3cccc(C(=O)Nc4c(F)cccc4F)c3)nc3ccccn23)n1 [Example 22]
pIC50: 5.30 to 6.00

----------
System: various cell lines of different tumor origins
Experiment: Inhibition of cell proliferation, InCell Analyzer assay
Assay type: cell-based
Conditions: Homo sapiens, FaDu, H&N

Line notation: COc1cc(N2CCC(N3CCCCC3)CC2)ccc1Nc1nccc(-c2c(-c3cccc(C(=O)Nc4c(F)cccc4F)c3)nc3ccccn23)n1
IC50: 1000 to 5000 nM

----------
Test system: various cell lines of different tumor origins
Assay: Inhibition of cell proliferation, InCell Analyzer assay
Type: cell-based
Conditions: ES2, Ovary
pIC50: −log10 of the molar value.
Measurement type: pIC50

Line notation: COc1cc(N2CCC(N3CCCCC3)CC2)ccc1Nc1nccc(-c2c(-c3cccc(C(=O)Nc4c(F)cccc4F)c3)nc3ccccn23)n1
Reported: 5.30 to 6.00

----------
Tested on: various cell lines of different tumor origins
Test: Inhibition of cell proliferation, InCell Analyzer assay
Assay type: cell-based
Conditions: Homo sapiens, SK-MEL-28, SK-MEL-28, Skin
pIC50: −log10 of the molar value.

Line notation: COc1cc(N2CCC(N3CCCCC3)CC2)ccc1Nc1nccc(-c2c(-c3cccc(C(=O)Nc4c(F)cccc4F)c3)nc3ccccn23)n1
pIC50: 5.30 to 6.00

----------
Tested on: various cell lines of different tumor origins
Experiment: Inhibition of cell proliferation, InCell Analyzer assay
Format: cell-based
Conditions: Homo sapiens, SW837, SW837, Colon

Compound: COc1cc(N2CCC(N3CCCCC3)CC2)ccc1Nc1nccc(-c2c(-c3cccc(C(=O)Nc4c(F)cccc4F)c3)nc3ccccn23)n1 [Example 22]
IC50: > 5 µM

----------
System: various cell lines of different tumor origins
Experiment: Inhibition of cell proliferation, InCell Analyzer assay
Assay type: cell-based
Details: Homo sapiens, C-33-A, C-33A, Cervix
pIC50: −log10 of the molar value.
Measurement type: pIC50

Molecule: COc1cc(N2CCC(N3CCCCC3)CC2)ccc1Nc1nccc(-c2c(-c3cccc(C(=O)Nc4c(F)cccc4F)c3)nc3ccccn23)n1 [Example 22]
Target of assay: various cell lines of different tumor origins
Reported: 5.30 to 6.00

----------
Tested on: various cell lines of different tumor origins
Assay: Inhibition of cell proliferation, InCell Analyzer assay
Type: cell-based
Conditions: CESS, AML
pIC50: −log10 of the molar value.
Measurement type: pIC50

Compound: COc1cc(N2CCC(N3CCCCC3)CC2)ccc1Nc1nccc(-c2c(-c3cccc(C(=O)Nc4c(F)cccc4F)c3)nc3ccccn23)n1 [Example 22]
Reported: < 5.30

----------
Target: IR (NIH-3T3 cells over expressing human IGF-1R or IR) (Homo sapiens, UniProt P06213)
Sequence (P06213 28-1382): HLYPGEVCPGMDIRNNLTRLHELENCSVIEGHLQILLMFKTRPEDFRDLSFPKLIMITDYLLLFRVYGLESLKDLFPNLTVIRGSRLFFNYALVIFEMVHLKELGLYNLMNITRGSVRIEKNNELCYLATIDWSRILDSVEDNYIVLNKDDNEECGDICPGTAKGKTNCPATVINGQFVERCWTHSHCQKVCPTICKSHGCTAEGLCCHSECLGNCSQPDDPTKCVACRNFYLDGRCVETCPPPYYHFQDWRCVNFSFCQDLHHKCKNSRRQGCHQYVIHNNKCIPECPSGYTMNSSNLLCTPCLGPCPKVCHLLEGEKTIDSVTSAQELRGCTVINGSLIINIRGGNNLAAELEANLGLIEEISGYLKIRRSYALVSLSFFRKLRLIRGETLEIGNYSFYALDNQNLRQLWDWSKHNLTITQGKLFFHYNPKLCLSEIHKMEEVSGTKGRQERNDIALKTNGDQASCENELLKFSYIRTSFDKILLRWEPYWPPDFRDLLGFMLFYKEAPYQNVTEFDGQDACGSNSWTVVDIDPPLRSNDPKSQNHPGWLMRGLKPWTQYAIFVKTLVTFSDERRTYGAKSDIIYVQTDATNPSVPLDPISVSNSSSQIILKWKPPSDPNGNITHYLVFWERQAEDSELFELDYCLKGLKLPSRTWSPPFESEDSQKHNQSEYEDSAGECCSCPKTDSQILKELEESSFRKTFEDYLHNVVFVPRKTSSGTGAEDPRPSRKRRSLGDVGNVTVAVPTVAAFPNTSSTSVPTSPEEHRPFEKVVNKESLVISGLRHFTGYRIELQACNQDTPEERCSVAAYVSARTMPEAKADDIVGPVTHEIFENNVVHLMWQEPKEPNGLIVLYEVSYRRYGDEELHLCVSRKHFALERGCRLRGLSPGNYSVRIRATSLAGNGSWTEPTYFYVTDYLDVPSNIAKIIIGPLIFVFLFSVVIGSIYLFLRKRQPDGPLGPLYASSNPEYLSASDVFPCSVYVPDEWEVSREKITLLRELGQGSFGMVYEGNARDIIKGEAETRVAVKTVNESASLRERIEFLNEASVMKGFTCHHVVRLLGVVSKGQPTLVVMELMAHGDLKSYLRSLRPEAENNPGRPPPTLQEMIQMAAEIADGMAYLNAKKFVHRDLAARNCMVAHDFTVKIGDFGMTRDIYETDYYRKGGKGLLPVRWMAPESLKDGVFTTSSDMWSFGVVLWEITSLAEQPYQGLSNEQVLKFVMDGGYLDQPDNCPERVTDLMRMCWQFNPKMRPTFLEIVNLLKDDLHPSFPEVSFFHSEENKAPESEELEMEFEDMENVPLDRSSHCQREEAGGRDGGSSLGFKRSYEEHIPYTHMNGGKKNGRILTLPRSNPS
Test: IR cellular autophosphorylation (DELFIA)
Details: NIH-3T3 cells over expressing IR, insulin stimulated

Line notation: COc1cc(N2CCC(CCS(C)(=O)=O)CC2)c(C)cc1Nc1nccc(-c2c(-c3ccc(OC(C)C)c(C(=O)Nc4c(F)cccc4F)c3)nc3ccccn23)n1
Target of assay: IR (NIH-3T3 cells over expressing human IGF-1R or IR) (Homo sapiens, UniProt P06213)
IC50: < 100 nM

Line notation: COc1cc(N2CCC(N3CCN(S(C)(=O)=O)CC3)CC2)c(C)cc1Nc1nccc(-c2c(-c3ccc(OC)c(C(=O)Nc4c(F)cccc4F)c3)nc3ccccn23)n1
Target of assay: IR (NIH-3T3 cells over expressing human IGF-1R or IR) (Homo sapiens, UniProt P06213)
IC50: < 100 nM

Line notation: CCOc1cc(N2CCC(CCS(C)(=O)=O)CC2)c(CC)cc1Nc1nccc(-c2c(-c3ccc(OC)c(C(=O)Nc4c(F)cccc4F)c3)nc3ccccn23)n1
Target of assay: IR (NIH-3T3 cells over expressing human IGF-1R or IR) (Homo sapiens, UniProt P06213)
IC50: < 100 nM

----------
Test system: various cell lines of different tumor origins
Assay: Inhibition of cell proliferation, InCell Analyzer assay
Assay type: cell-based
Settings: Homo sapiens, A101D, Skin
Measurement type: IC50

Line notation: COc1cc(N2CCC(N3CCCCC3)CC2)ccc1Nc1nccc(-c2c(-c3cccc(C(=O)Nc4c(F)cccc4F)c3)nc3ccccn23)n1
Reported: 1000 to 5000 nM

----------
Test system: various cell lines of different tumor origins
Assay: Inhibition of cell proliferation, InCell Analyzer assay
Type: cell-based
Settings: Homo sapiens, NCI-H146, NCI-H146, Lung
pIC50: −log10 of the molar value.
Measurement type: pIC50

Line notation: COc1cc(N2CCC(N3CCCCC3)CC2)ccc1Nc1nccc(-c2c(-c3cccc(C(=O)Nc4c(F)cccc4F)c3)nc3ccccn23)n1
Measurement type: pIC50
Reported: < 5.30

----------
Test system: various cell lines of different tumor origins
Experiment: Inhibition of cell proliferation, InCell Analyzer assay
Format: cell-based
Conditions: Homo sapiens, NCI-N87, NCI-N87, Stomach

Molecule: COc1cc(N2CCC(N3CCCCC3)CC2)ccc1Nc1nccc(-c2c(-c3cccc(C(=O)Nc4c(F)cccc4F)c3)nc3ccccn23)n1 [Example 22]
IC50: < 1000 nM

----------
Molecular target: IR (NIH-3T3 cells over expressing human IGF-1R or IR) (Homo sapiens, UniProt P06213)
Assay: IR cellular autophosphorylation (DELFIA)
Details: NIH-3T3 cells over expressing IR, insulin stimulated

Line notation: COc1cc(N2CCC(N3CCCCC3)CC2)c(C)cc1Nc1nccc(-c2c(-c3cccc(C(=O)Nc4c(F)cccc4F)c3)nc3ccccn23)n1
IC50: < 100 nM
//
Line notation: COc1cc(N2CCC(N3CCN(CCF)CC3)CC2)ccc1Nc1nccc(-c2c(-c3cccc(C(=O)Nc4c(F)cccc4F)c3)nc3c(C)cccn23)n1
IC50: < 100 nM
//
Line notation: COc1cc(N2CCC(N3CCCC3)CC2)ccc1Nc1nccc(-c2c(-c3cccc(C(=O)Nc4c(F)cccc4F)c3)nc3ccccn23)n1
IC50: < 100 nM
//
Line notation: COc1ccn2c(-c3ccnc(Nc4ccc(N5CCC(N6CCCCC6)CC5)cc4OC)n3)c(-c3ccc(OC)c(C(=O)Nc4c(F)cccc4F)c3)nc2c1
IC50: < 100 nM
//
Line notation: COc1ccn2c(-c3ccnc(Nc4cccc(OCCN(C)C)c4)n3)c(-c3cccc(C(=O)Nc4c(F)cccc4F)c3)nc2c1
IC50: > 500 nM
//
Line notation: COc1cc(N2CCC(N3CCN(S(C)(=O)=O)CC3)CC2)ccc1Nc1nccc(-c2c(-c3cccc(C(=O)Nc4c(F)cccc4F)c3)nc3ccccn23)n1
IC50: < 100 nM

----------
System: various cell lines of different tumor origins
Experiment: Inhibition of cell proliferation, InCell Analyzer assay
Assay type: cell-based
Details: Homo sapiens, LS-1034, LS1034, Colon

Molecule: COc1cc(N2CCC(N3CCCCC3)CC2)ccc1Nc1nccc(-c2c(-c3cccc(C(=O)Nc4c(F)cccc4F)c3)nc3ccccn23)n1 [Example 22]
IC50: < 1000 nM

Where these numbers come from: patent US20100216779A1
